Test system: Bacillus cereus
assay notes: Antibacterial activity against Bacillus cereus MTCC 430 by agar streak dilution method
Format: functional
# if measured MIC < 50 µg/mL: t  # else: f

**Q:** Does O=C(CSc1nnc(Cn2cnc3ccccc32)o1)Nc1nc2ccc(Br)cc2s1 have MIC strictly under 50 µg/mL?
**A:** t

**Q:** Does O=C(CSc1nnc(Cn2cnc3ccccc32)o1)Nc1nc2ccc(F)cc2s1 have MIC strictly under 50 µg/mL?
**A:** t

**Q:** Does O=C(CSc1nnc(Cn2cnc3ccccc32)o1)Nc1ccc(I)cc1 have MIC strictly under 50 µg/mL?
**A:** f

**Q:** Does O=C(O)c1cn(C2CC2)c2cc(N3CCNCC3)c(F)cc2c1=O have MIC strictly under 50 µg/mL?
**A:** t

**Q:** Does O=C(CSc1nnc(Cn2cnc3ccccc32)o1)Nc1nc2ccc(I)cc2s1 have MIC strictly under 50 µg/mL?
**A:** t

**Q:** Does Cc1ccc(NC(=O)CSc2nnc(Cn3cnc4ccccc43)o2)cc1 have MIC strictly under 50 µg/mL?
**A:** f

**Q:** Does O=C(CSc1nnc(Cn2cnc3ccccc32)o1)Nc1nc2ccc(Cl)cc2s1 have MIC strictly under 50 µg/mL?
**A:** t

**Q:** Does O=C(CSc1nnc(Cn2cnc3ccccc32)o1)Nc1ccc([N+](=O)[O-])cc1 have MIC strictly under 50 µg/mL?
**A:** f

**Q:** Does CC(=O)Nc1ccc(NC(=O)CSc2nnc(Cn3cnc4ccccc43)o2)cc1 have MIC strictly under 50 µg/mL?
**A:** f

----------
For each of the compounds below, state its zone of inhibition at 100 µg/disc.
Test system: Salmonella typhi
assay notes: Antibacterial activity against Salmonella typhi MTCC 733 at 100 ug/disc by paper disc diffusion technique
Type: functional, Salmonella enterica subsp. enterica serovar Typhi
setup conditions: Salmonella enterica, read-out: IZ
Give the value, in units of mm, as a plain number.

**Q:** Field request: zone of inhibition at 100 µg/disc | item: COc1ccc(NC(=O)CSc2nnc(Cn3cnc4ccccc43)o2)cc1
**A:** 20

**Q:** Field request: zone of inhibition at 100 µg/disc | item: N#Cc1ccc(NC(=O)CSc2nnc(Cn3cnc4ccccc43)o2)cc1
**A:** 20

**Q:** Field request: zone of inhibition at 100 µg/disc | item: COc1ccc2nc(NC(=O)CSc3nnc(Cn4cnc5ccccc54)o3)sc2c1
**A:** 20

----------
For each of the compounds below, state its MIC.
System: Aspergillus clavatus
assay notes: Antifungal activity against Aspergillus clavatus MTCC 1323 by agar streak dilution method
Assay type: functional
Give the value, in units of µg/mL, as a plain number.

**Q:** Field request: MIC | item: CCOc1ccc(NC(=O)CSc2nnc(Cn3cnc4ccccc43)o2)cc1
**A:** 100

**Q:** Field request: MIC | item: O=C(CSc1nnc(Cn2cnc3ccccc32)o1)Nc1ccc(F)cc1
**A:** 100

**Q:** Field request: MIC | item: O=C(CSc1nnc(Cn2cnc3ccccc32)o1)Nc1nc2ccc(F)cc2s1
**A:** 50

**Q:** Field request: MIC | item: N#Cc1ccc(NC(=O)CSc2nnc(Cn3cnc4ccccc43)o2)cc1
**A:** 100

**Q:** Field request: MIC | item: CC(=O)Nc1ccc2nc(NC(=O)CSc3nnc(Cn4cnc5ccccc54)o3)sc2c1
**A:** 50

**Q:** Field request: MIC | item: Cc1ccc(NC(=O)CSc2nnc(Cn3cnc4ccccc43)o2)cc1
**A:** 100

**Q:** Field request: MIC | item: CC(=O)Nc1ccc(NC(=O)CSc2nnc(Cn3cnc4ccccc43)o2)cc1
**A:** 100

**Q:** Field request: MIC | item: O=C(CSc1nnc(Cn2cnc3ccccc32)o1)Nc1nc2ccccc2s1
**A:** 100

**Q:** Field request: MIC | item: CCOc1ccc2nc(NC(=O)CSc3nnc(Cn4cnc5ccccc54)o3)sc2c1
**A:** 100

**Q:** Field request: MIC | item: O=C(CSc1nnc(Cn2cnc3ccccc32)o1)Nc1nc2ccc([N+](=O)[O-])cc2s1
**A:** 25

**Q:** Field request: MIC | item: Cc1ccc2nc(NC(=O)CSc3nnc(Cn4cnc5ccccc54)o3)sc2c1
**A:** 100

**Q:** Field request: MIC | item: O=C(CSc1nnc(Cn2cnc3ccccc32)o1)Nc1nc2ccc(Br)cc2s1
**A:** 50

**Q:** Field request: MIC | item: COc1ccc2nc(NC(=O)CSc3nnc(Cn4cnc5ccccc54)o3)sc2c1
**A:** 50
